Overview of recorded pIC50 for various compounds
System: L1210
assay-method-text: Cytostatic activity against L1210 cell line
Format: functional, cell-based
test-conditions: Mus musculus
pIC50: −log10 of the molar value.

smiles-text	pIC50
NC(=O)C[C@@H]1NC(=O)[C@H](N)[C@H](O)c2ccc(c(Cl)c2)Oc2cc3cc(c2O)Oc2ccc(cc2)[C@@H](O)[C@@H]2NC(=O)[C@H](NC(=O)[C@@H]3NC1=O)c1ccc(O)c(c1)-c1c(O)cc(O)cc1[C@@H](C(=O)NCC13CC4CC(CC(C4)C1)C3)NC2=O	3.76
NC(=O)C[C@@H]1NC(=O)[C@H](N)[C@H](O)c2ccc(cc2)Oc2cc3cc(c2O)Oc2ccc(cc2)[C@@H](O)[C@@H]2NC(=O)[C@H](NC(=O)[C@@H]3NC1=O)c1ccc(O)c(c1)-c1c(O)cc(O)cc1[C@@H](C(=O)NCC13CC4CC(CC(C4)C1)C3)NC2=O	< 3.60
CN[C@H](CC(C)C)C(=O)N[C@H]1C(=O)N[C@@H](CC(N)=O)C(=O)N[C@H]2C(=O)N[C@H]3C(=O)N[C@H](C(=O)N[C@H](C(=O)O)c4cc(O)cc(O)c4-c4cc3ccc4O)[C@H](O)c3ccc(c(Cl)c3)Oc3cc2cc(c3O)Oc2ccc(cc2Cl)[C@H]1O	< 3.30
NCCCCCCCCCCNC(=O)[C@H]1NC(=O)[C@H]2NC(=O)[C@H](NC(=O)[C@@H]3NC(=O)[C@H](CC(N)=O)NC(=O)[C@H](N)[C@H](O)c4ccc(c(Cl)c4)Oc4cc3cc(c4O)Oc3ccc(cc3Cl)[C@H]2O)c2ccc(O)c(c2)-c2c(O)cc(O)cc21	< 3.60

The values you see were collected from ChEMBL document CHEMBL1139533.
